B1: HDV Ribozyme (parent)
chain: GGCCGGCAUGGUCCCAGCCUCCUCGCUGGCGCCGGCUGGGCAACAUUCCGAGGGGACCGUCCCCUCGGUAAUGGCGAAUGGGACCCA

# Variants of: B1
# ASSAY_METHOD_TEXT: self-cleavage, relative activity (ratio to wild type); higher = more cleavage; co-transcriptional
MEASURED_QUANTITY: self-cleavage
# output: bare number, no unit

Here are 8 variants together with their reported answers.
{"columns": ["VARIANT_IDENTIFIER", "self-cleavage"],
 "data": [
  ["C30G A87G", 0.0702],
  ["G2C G39U", 0.0246],
  ["A45U C48A", 0.7],
  ["A43U A56U", 0.475],
  ["U27C U69C", 0.931],
  ["C24G G28U", 0.0594],
  ["G34A C64U", 0.133],
  ["U46A C61G", 0.808]
]}

Request: Item C4G G11A has what recorded self-cleavage?
Result: 0.104

Request: # get_value(readout='self-cleavage', item= C21A C61A )
Result: 0.0511
